Test system: Coxsackie virus B6
protocol_notes: Coxsackie virus activity assay (CPE in Vero cells)
Type: cell-based
assay_context: Vero, read-out: COX-B6 IC50, Vero cells, about 100TCID50, CPE, Reed-Muench
For each record, write down the corresponding IC50.

## Input Requested read-out: IC50. Entry: COc1cc(CCc2ccccc2)cc(O)c1CC=C(C)C [Compound 10v]
## Output > 6.19 mg/L

## Input Requested read-out: IC50. Entry: `COc1cc(/C=C/Cc2ccccc2)c(C(=O)O)c(O)c1CC=C(C)C`
## Output > 2.06 mg/L

## Input Requested read-out: IC50. Entry: COc1cc(CCc2ccccc2)cc(O)c1CCC(C)C [Compound 10u, 2-isopentyl-3-methoxy-5-phenethyl phenol]
## Output > 6.19 mg/L

* * *

Test system: HIV-1 III B virus
protocol_notes: Anti-HIV activity assay (P24 antigen in MT-4 cells)
Format: cell-based
assay_context: Human immunodeficiency virus 1, MT4, 96 h, MT-4 cells, HIV-1 III B 100TCID50, 96 h, P24 antigen; read-out: HIV IC50
metric_name: log10(IC50) (log10 of the value in µg/mL)
Record value = log10 of IC50 given in µg/mL.

## Input Requested read-out: log10(IC50). Entry: Oc1cc(O)cc(/C=C/c2cc(O)c(O)c(O)c2)c1 [Compound 21k]
## Output 1.01

## Input Requested read-out: log10(IC50). Entry: `COc1cc(/C=C/c2cc(O)cc(O)n2)c(C(=O)O)c(O)c1CC=C(C)C`
## Output 0.14

## Input Requested read-out: log10(IC50). Entry: `COc1cc(/C=C/c2ccccc2)c(C(N)=O)c(O)c1CC=C(C)C`
## Output -0.80

## Input Requested read-out: log10(IC50). Entry: `COC(=O)c1c(/C=C/CCc2ccccc2)cc(OC)c(CC=C(C)C)c1O`
## Output 0.71

## Input Requested read-out: log10(IC50). Entry: `COc1cc(/C=C/c2ccc(C)cc2)c(C(=O)O)c(O)c1CC=C(C)C`
## Output -0.17

## Input Requested read-out: log10(IC50). Entry: `COc1cc(/C=C/c2ccccc2Cl)c(C(=O)O)c(O)c1CC=C(C)C`
## Output 0.09

## Input Requested read-out: log10(IC50). Entry: CC/C=C/c1cc(O)c(CC=C(C)C)c(OC)c1 [Compound 10h]
## Output -0.02

## Input Requested read-out: log10(IC50). Entry: `CC/C=C/c1cc(OC)c(CC=C(C)C)c(O)c1C(=O)O`
## Output 0.38

## Input Requested read-out: log10(IC50). Entry: COc1cc(/C=C/c2ccccc2)cc(OC(=O)C2CCCN2)c1CC=C(C)C (centres unmarked) [Compound 24f]
## Output 0.00

## Input Requested read-out: log10(IC50). Entry: COc1cc(/C=C/c2ccccn2)cc(O)c1CC=C(C)C [Compound 10x]
## Output 0.04

## Input Requested read-out: log10(IC50). Entry: `COc1cc(/C=C/c2ccccc2)c(C(=O)n2ccnc2)c(O)c1CC=C(C)C`
## Output -0.46

## Input Requested read-out: log10(IC50). Entry: COc1cc(/C=C/c2ccccc2C)cc(O)c1CC=C(C)C [Compound 10e]
## Output 0.12

## Input Requested read-out: log10(IC50). Entry: `COc1ccc(/C=C/c2cc(OC)c(CC=C(C)C)c(O)c2C(=O)O)cc1`
## Output 0.21

## Input Requested read-out: log10(IC50). Entry: COc1cc(/C=C/c2ccccc2)c(C(=O)NC(N)=O)c(O)c1CC=C(C)C [Compound 23a]
## Output -0.13

* * *

System: Influenza A virus (hanfang359/95)
protocol_notes: Determination of anti-influenza virus activity (CPE in MDCK cells)
Assay type: cell-based
assay_context: Influenza A virus, MDCK, 36 h
metric_name: IC50

## Input Requested read-out: IC50. Entry: COc1cc(/C=C/c2ccccc2)c(C(=O)O)c(OC)c1CC=C(C)C [Compound 15]
## Output > 0.23 µg/mL

## Input Requested read-out: IC50. Entry: COc1cc(CCc2ccccc2)cc(O)c1CC=C(C)C [Compound 10v]
## Output > 0.69 µg/mL

## Input Requested read-out: IC50. Entry: COc1cc(/C=C/c2ccc(C)cc2)cc(O)c1CC=C(C)C [Compound 10g]
## Output > 6.19 µg/mL

## Input Requested read-out: IC50. Entry: COc1c(Cl)c(/C=C/c2ccccc2)cc(O)c1CC=C(C)C [Compound 10s]
## Output > 6.17 µg/mL

## Input Requested read-out: IC50. Entry: COc1cc(/C=C/c2cccs2)c(C(=O)O)c(O)c1CC=C(C)C [Compound 1j]
## Output > 0.27 µg/mL

## Input Requested read-out: IC50. Entry: COc1ccc(/C=C/c2cc(OC)c(CC=C(C)C)c(O)c2C(=O)O)cc1 [Compound 1c]
## Output > 2.06 µg/mL

## Input Requested read-out: IC50. Entry: COC(=O)c1c(O)cc(OC)c(CC=C(C)C)c1/C=C/c1ccccc1 [Compound 18]
## Output > 18.5 µg/mL

## Input Requested read-out: IC50. Entry: COc1cc(/C=C/c2ccccc2)c(C(=O)O)c(OC(=N)N)c1CC=C(C)C [Compound 27b]
## Output 2.14 µg/mL

## Input Requested read-out: IC50. Entry: COc1cccc(/C=C/c2cc(O)c(CC=C(C)C)c(OC)c2)n1 [10f′]
## Output 0.23 µg/mL

## Input Requested read-out: IC50. Entry: COc1cc(/C=C/c2cc(O)cc(O)n2)c(C(=O)O)c(O)c1CC=C(C)C [1a′]
## Output 0.19 µg/mL

## Input Requested read-out: IC50. Entry: COc1cc(/C=C/c2ccccc2)cc(OC(C)=O)c1CC=C(C)C [Compound 24i]
## Output 0.15 µg/mL

## Input Requested read-out: IC50. Entry: COC(=O)c1c(/C=C/c2c(OC)cccc2OC)cc(OC)c(CC=C(C)C)c1O [Compound 8d]
## Output > 6.17 µg/mL

## Input Requested read-out: IC50. Entry: COc1cc(/C=C/c2ccccc2)cc(O)c1C/C=C(\C)CCC=C(C)C [Compound 10o]
## Output > 2.06 µg/mL

* * *

For each record, write down the corresponding log10(IC50).
Tested on: HIV-1 III B virus
protocol_notes: Anti-HIV activity assay (P24 antigen in MT-4 cells)
Format: cell-based
assay_context: Human immunodeficiency virus 1, MT4, 96 h, MT-4 cells, HIV-1 III B 100TCID50, 96 h, P24 antigen; read-out: HIV IC50
Record value = log10 of IC50 given in µg/mL.

## Input Report log10(IC50) for COc1cc(/C=C/c2ccccc2)c(C(=O)O)c(OC(=O)CN)c1CC=C(C)C [Compound 24b] tested on HIV-1 III B virus.
## Output 0.30

## Input Report log10(IC50) for COc1ccnc(/C=C/c2cc(OC)c(CC=C(C)C)c(O)c2C(=O)O)c1 [Compound 1v] tested on HIV-1 III B virus.
## Output 0.17

## Input Report log10(IC50) for COc1cc(/C=C/CCc2ccccc2)cc(O)c1CC=C(C)C [Compound 10l] tested on HIV-1 III B virus.
## Output 0.34

## Input Report log10(IC50) for COC(=O)c1c(/C=C/c2ccccc2)cc(OC)c(CC=C(C)C)c1O [Compound 8] tested on HIV-1 III B virus.
## Output 0.03

## Input Report log10(IC50) for CC/C=C/c1cc(OC)c(CC=C(C)C)c(O)c1C(=O)OC [Compound 8h] tested on HIV-1 III B virus.
## Output 0.42

## Input Report log10(IC50) for COC(=O)c1c(/C=C/c2ccccc2)cc(OC)c(CC=C(C)C)c1OC(=O)c1cnc[nH]1 [Compound 24p] tested on HIV-1 III B virus.
## Output -0.51

## Input Report log10(IC50) for COc1cc(/C=C/c2ccccc2)cc(OC(=O)c2cnc[nH]2)c1CC=C(C)C [Compound 24r] tested on HIV-1 III B virus.
## Output 0.36

## Input Report log10(IC50) for Oc1cc(O)cc(/C=C/c2ccc(O)c(O)c2)c1 [Compound 21e] tested on HIV-1 III B virus.
## Output 0.80

## Input Report log10(IC50) for COc1cc(/C=C/c2ccccc2)c(C(=O)Nc2ccccc2)c(O)c1CC=C(C)C [Compound 9g] tested on HIV-1 III B virus.
## Output -0.10

## Input Report log10(IC50) for COc1cc(/C=C/c2ccccc2C)c(C(=O)O)c(O)c1CC=C(C)C [Compound 1e] tested on HIV-1 III B virus.
## Output 0.43
